measured-on: human GLP-1 R (Homo sapiens, UniProt P43220)
Construct: expressed in transfected cells
Sequence (P43220 24-463): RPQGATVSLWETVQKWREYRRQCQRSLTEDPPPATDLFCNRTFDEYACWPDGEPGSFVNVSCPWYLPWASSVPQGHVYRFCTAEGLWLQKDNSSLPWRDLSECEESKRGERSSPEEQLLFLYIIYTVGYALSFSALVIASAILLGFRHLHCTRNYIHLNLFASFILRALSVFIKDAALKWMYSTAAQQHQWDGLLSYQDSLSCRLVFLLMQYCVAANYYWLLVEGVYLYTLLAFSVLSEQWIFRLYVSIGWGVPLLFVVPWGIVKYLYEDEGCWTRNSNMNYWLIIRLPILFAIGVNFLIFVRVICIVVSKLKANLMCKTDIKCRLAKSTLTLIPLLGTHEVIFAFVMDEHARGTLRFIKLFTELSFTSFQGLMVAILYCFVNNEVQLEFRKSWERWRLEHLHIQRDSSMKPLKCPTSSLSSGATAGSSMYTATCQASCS
assay-protocol: Human GLP-1 receptor efficacy assay (cAMP induction, FlashPlate)
Format: cell-based
reported-conditions: Table 3; read-out: hGLP-1 R EC50
property-measured: EC50 (nM)

substance | unit-of-measurement | EC50
H-HAEGTFTSDVSSYLEGQAAKEFIAWLVKGRQGPWLEEEEEAYGWLDF-NH2 [Compound 37, GLP-1(7-36)-[Gln1,Leu15]Gastrin17] | nM | 0.03
H-HAEGTFTSDVSSYLEGQAAKEFIAWLVKGRAAAQGPWLEEEEEAYGWLDF-NH2 [Compound 39, GLP-1(7-36)-AAA-[Gln1,Leu15]Gastrin17] | nM | 0.034
H-HAEGTFTSDVSSYLEGQAAKEFIAWLVKGRSKKQGPWLEEEEEAYGWLDF-NH2 [Compound 40, GLP-1(7-36)-SKK-[Gln1,Leu15]Gastrin17] | nM | 0.031
H-HAEGTFTSDVSSYLEGQAAKEFIAWLVKGRKQGPWLEEEEEAYGWLDF-NH2 [Compound 38, GLP-1(7-36)-K-[Gln1,Leu15]Gastrin17] | nM | 0.03
